Would you kindly list viability at 28.5 h, 10 µM for each of these compounds?
assay.name: in vitro
condition.set: human, hela cells, % viability
# value in %; strip the unit string

Problem: Which viability at 28.5 h, 10 µM is listed for CC(C)CCN1CCn2nc(CNc3cnccn3)cc2C1 ?
Result: 85.8

Problem: Request: COc1cccc(CNC(=O)c2cn[nH]c2-c2cccc(C)c2)c1
Result: 102

Problem: Request: COc1cc(-c2cncc(NCc3cccc(Cl)c3)n2)cc(OC)c1OC
Result: 115

Problem: Request: Cc1nc(C2CCN(C(=O)CCc3ccno3)CC2)c2sccn12
Result: 93.1

Problem: Request: Cc1cc2c(s1)c1cnn(CC(=O)N3CCCCC3)c(=O)c1n2C
Result: 82.3

Problem: Request: Cc1n[nH]c(C)c1CCC(=O)N/N=C/c1ccncc1
Result: 112

Problem: Request: Cc1nc2ccccc2c(=O)n1Cc1cccnc1
Result: 94.3

Problem: Request: O=C(Cn1c(NCCCO)nc2ccccc21)c1ccco1 [CBK264099B]
Result: 94.7

Problem: Request: O=C(NCC1CCCO1)C(=O)Nc1ccccc1F (centres unmarked)
Result: 90.5

Problem: Request: Cc1sc2nc(SCCCN3C(=O)c4cccc5cccc(c45)C3=O)nc(N)c2c1C
Result: 76.6

Problem: Request: O=C(CSc1ncnc2ccccc12)N(Cc1ccccc1F)C1CC1
Result: 92.1

Problem: Request: COc1cc(-c2nc3ccccn3c2/N=C/c2ccc(-c3ccc([N+](=O)[O-])cc3)o2)ccc1O
Result: 79.8

Problem: Request: CN1CCC(N(C)C(=O)NCCCN2CCCC2=O)C1 (centres unmarked)
Result: 92.3

Problem: Request: Cc1noc(C)c1C(=O)N1CCCC(c2nc(C)n3ccsc23)C1 (centres unmarked)
Result: 103

Problem: Request: N#CCn1nnc(-c2ccc3c(c2)OCO3)n1
Result: 98.7

Problem: Request: CCOc1cccc(-c2cncc(N3CCN(c4ccccn4)CC3)n2)c1
Result: 91.5

Problem: Request: c1nc(OCCN2CCOCC2)cc(N2CCCN(CCN3CCOCC3)CC2)n1
Result: 103

Problem: Request: Cc1nn(CC(=O)N(C)Cc2cnccn2)c(=O)c2ccccc12
Result: 97.6

Problem: Request: CC(=O)N1CCc2sccc2C1c1ccc(NCc2ccc(F)cc2)cc1 (centres unmarked)
Result: 90.3

Problem: Request: CN(Cc1ccccc1)C(=O)CCNS(=O)(=O)c1ccccc1
Result: 103
